species: Rattus norvegicus; assay: DrugMatrix - Regimen: Daily Repeat; type: toxicity, organism-based, Sprague-Dawley; design: regimen Daily Repeat, gender Male, age 6-8 weeks; settings: in vivo, po, 0 mg/kg, 120 h, tissue Blood, route oral GAVAGE, dose level Control, time 5 day, […]
measure.name: MONOCYTE (%)
Write the value in % as a bare number.

Answered cases to consult:
CC(=O)Nc1nnc(S(N)(=O)=O)s1 [ACETAZOLAMIDE]	3.33
CC(C)Cc1ccc(CC(=O)O)cc1	3
C#C[C@]1(O)CC[C@H]2[C@@H]3CCc4cc(O)ccc4[C@H]3CC[C@@]21C	2
CCn1cc(C(=O)O)c(=O)c2cc(F)c(N3CCNCC3)nc21	2

Consider now this further molecule.
*Q* // Input: COc1ncnc(NS(=O)(=O)c2ccc(N)cc2)c1OC . Output its MONOCYTE only.
*A* 3.33
